These entries and their values trace back to ChEMBL document CHEMBL1201862.

test system: HCC 2998; test: NCI tumour cell line growth inhibition, 48 h
The source made the active and inactive calls. No stated cut-off is given here; in the data, active = GI50 up to about 1.1 µM and inactive = higher.
measured-endpoint: GI50

Here are 8 molecules together with their reported answers.
molecule=COc1ccc(O)c(/C=N/NC(=S)N2CCCCC2)c1 measured_endpoint=GI50 result="1.87 µM (inactive)"
molecule=Cc1ccc(S(=O)(=O)N/N=C\c2c3ccccc3[n+](C)c3ccccc23)cc1 measured_endpoint=GI50 result="92.7 µM (inactive)"
molecule="COC(=O)/C(=N\\Nc1nc(S)nn1N)C(C#N)c1ccc(Cl)cc1 (centres undefined)" measured_endpoint=GI50 result="> 100 µM (inactive)"
molecule="CC(C)OP(=O)(OC(C)C)C(C(C)C)N(C)/C(N)=N/C#N (centres undefined)" measured_endpoint=GI50 result="> 100 µM (inactive)"
molecule=Cc1ccc(/C(=C\C(=O)C(=O)NC23CC4CC(CC(C4)C2)C3)Sc2ccccc2)cc1 measured_endpoint=GI50 result="> 10 µM (inactive)"
molecule=CC(=O)NC1=C(C)C(=O)c2c(nc3n2CC[C@H]3OC(C)=O)C1=O measured_endpoint=GI50 result="2.52 µM (inactive)"
molecule="Cc1cc(O)nc(NN2C(Cl)C(=O)C2c2ccc(Cl)cc2)n1 (centres undefined)" measured_endpoint=GI50 result="17 µM (inactive)"
molecule=O=c1c2c3c(sc2nc2n1N=C(c1ccc([N+](=O)[O-])cc1)CS2)CCCC3 measured_endpoint=GI50 result="> 100 µM (inactive)"

// next item, GI50 requested
Item under review: CCSc1nnc(CSc2nc(-c3ccccc3)c(-c3ccccc3)[nH]2)n1-c1ccccc1 . Reported GI50?
20.8 µM (inactive)

----------
system: SR; assay: NCI tumour cell line growth inhibition, 48 h
Active and inactive are the calls of the source. No stated cut-off is given here; in the data, active = GI50 up to about 1.1 µM and inactive = higher.
Mark one answer only. Choices: active, inactive

compound="CC1CCC2(OCCO2)[C@]2(C)CC(O)C(=O)C=C12 (some centres undefined)" label_value=inactive
compound=C/C(CC(O)(C(F)(F)F)C(F)(F)F)=N\NC(N)=O label_value=inactive
compound=COc1ccc(CCN2C(=O)C=CC2=O)cc1OC label_value=inactive

Recorded call for COc1ccc(/C=C2/SC(c3c(O)ccc4ccccc34)N(NC(=O)CCCCCCCCC(=O)NN3C(=O)/C(=C\c4ccc(OC)c(OC)c4)SC3c3c(O)ccc4ccccc34)C2=O)cc1OC (centres undefined) ?
active

----------
tested on: OVCAR-3; assay: NCI tumour cell line growth inhibition, 48 h
Active and inactive are the calls of the source. Rule as the data show it: active = GI50 up to about 1.1 µM and inactive = higher.
Response enum: active, inactive

molecule=COc1ccc(CCN2C(=O)C=CC2=O)cc1OC label_value=inactive

Okay, next one:
Dear colleague, could you share the recorded outcome for COC(=O)/C(C#N)=C1\CCC(Nc2cccc(C(F)(F)F)c2)N1C (stereo not given) when you have a moment?
inactive

----------
tested on: CCRF-CEM; assay: NCI tumour cell line growth inhibition, 48 h
Active and inactive are the calls of the source. No stated cut-off is given here; in the data, active = GI50 up to about 1.1 µM and inactive = higher.
Reported values of GI50 for individual entries

Examples with answers:
compound=Clc1ccc(/C=C/c2nc(-c3ccc(Cl)cc3)cn3c2nc2ccccc23)cc1 result="> 100 µM (inactive)"
compound=C/C(=N/NC(=O)CC(=O)N(C(=O)c1ccccc1Cl)c1ccc(C)cc1)c1cc2ccccc2oc1=O result="> 100 µM (inactive)"

Can you look up the measured GI50 of COc1ccc2c(c1)CCCN1Cc3cc(OC)c(OC)cc3CC21 (stereo not drawn) for me?
99.8 µM (inactive)

----------
test system: M14; test: NCI tumour cell line growth inhibition, 48 h
Active and inactive are the calls of the source. No stated cut-off is given here; in the data, active = GI50 up to about 1.1 µM and inactive = higher.
# GI50 listing for each entry below

Known results for compounds:
compound=S=C(Nc1ccc2cn[nH]c2c1)Nc1ccc2cn[nH]c2c1 measured_endpoint=GI50 result="> 100 µM (inactive)"
compound=C=CCSc1nnc2cc(CN3CCCC3)c(-c3ccc(Cl)cc3)nn12 measured_endpoint=GI50 result="18.1 µM (inactive)"
compound=C1CCNCC1.Oc1ncnc2[nH]cc(CN3CCCCC3)c12 measured_endpoint=GI50 result="> 100 µM (inactive)"

Test system M14; read-out GI50; what value for COc1cc2cc(C(=O)N3CC(CCl)c4c3cc(NCCN)c3ccccc43)[nH]c2c(OC)c1OC (stereo unspecified) ?
< 0.01 µM (active)

I'm curious: which GI50 was measured for NC1=NS(=O)(=O)Nc2nc(-c3ccc([N+](=O)[O-])cc3)[nH]c21 tested on M14?
> 100 µM (inactive)

What is its GI50 for M14? Entry: Cc1cc(Br)cc(C)c1NC(=O)C(=O)C(C(=O)c1ccncc1)C1OC(=O)c2ccccc21 (stereo unspecified)
> 100 µM (inactive)

What GI50 appears in the records for this compound with M14? O=[N+]([O-])c1nccn1COCCI
> 100 µM (inactive)

Field: GI50 (M14). Entry: Nc1ccn(C2CC(O)C(COP(=O)(S)OC3CC(n4ccc(N)nc4=O)OC3CO)O2)c(=O)n1 (stereo unspecified)
> 100 µM (inactive)

Which measured GI50 belongs to COc1ccccc1CC(C)N (stereo unspecified) , tested on M14?
> 100 µM (inactive)

Given the entry CC(C)Cc1c(C#N)c(C#N)c(N)n1Cc1ccccc1 , what GI50 was observed with M14?
> 100 µM (inactive)

Provide value of GI50 for this record tested with M14: COC(=O)c1c2c(cc3c1CC1(Cc4cc5c(c(C(C)=O)c4C1)CCCC5)C3)CCCC2 (stereo unspecified)
> 100 µM (inactive)

----------
tested on: Malme-3M; test: NCI tumour cell line growth inhibition, 48 h
The source made the active and inactive calls. Cut-off read from the data, not from the text of the source: active = GI50 up to about 1.1 µM and inactive = higher.
measured-endpoint: GI50

Example entries and their recorded answers appear below.
compound=C[C@]12CC[C@H]3[C@@H](CCC4=C(Br)C(=O)C=C[C@@]43O)[C@@H]1CCC2=O measured_endpoint=GI50 result="93.5 µM (inactive)"
compound="CCN1CCC(O)(c2ccc(Oc3ccc(C)cc3)cc2)C(C(=O)c2ccc(Oc3ccc(C)cc3)cc2)C1 (centres undefined)" measured_endpoint=GI50 result="14.6 µM (inactive)"
compound="COc1cccc(N2C(=O)[C@H]3[C@H]4CC(C(C)(C)C)CC[C@H]4c4c([nH]c5ccccc45)[C@H]3C2=O)c1 (some centres undefined)" measured_endpoint=GI50 result="20.6 µM (inactive)"

Note: attention shifts to another entry.
Entry O=C1/C(=c2\c3ccccc3n3c(=O)c4ccccc4nc23)Nc2ccccc21 has what GI50?
33 µM (inactive)

----------
system: SNB-78; assay: NCI tumour cell line growth inhibition, 48 h
Calls of active or inactive are those of the source. No stated cut-off is given here; in the data, active = GI50 up to about 1.1 µM and inactive = higher.
Pick one and only one: active, inactive

compound=Cc1c(N(C)C)ccc2c(=O)c3cccc(CC(=O)O)c3oc12 label_value=inactive

Could you kindly confirm the outcome this assay logged for CCOC(=O)Nc1ccc(S(=O)(=O)I)cc1.CCOC(=O)Nc1ccc(S(=O)(=O)I)cc1.CN(C=O)C1=C(N(C)C=O)C(N(C)C=O)=C(N(C)C=O)C(=O)C1=O ?
inactive

Record lookup: outcome of this test for C[C@]12CC/C(=N\O)C=C1CC[C@@H]1C2CC[C@@]2(C)C1CC[C@@H]2OC1CCCCO1 (stereo not given in full) ?
inactive

----------
tested on: SW-620; assay: NCI tumour cell line growth inhibition, 48 h
Activity calls are given as the source filed them. No stated cut-off is given here; in the data, active = GI50 up to about 1.1 µM and inactive = higher.
measured-endpoint: GI50

compound="Cc1cc(O)nc(NN2C(Cl)C(=O)C2c2ccc(Cl)cc2)n1 (stereo not given)" result="22.5 µM (inactive)"
compound="COc1cccc(N2C(=O)[C@H]3[C@H]4CC(C(C)(C)C)CC[C@H]4c4c([nH]c5ccccc45)[C@H]3C2=O)c1 (stereo not given in full)" result="17.4 µM (inactive)"
compound=O=C1CCCSC(=O)N1Cc1ccccc1 result="> 100 µM (inactive)"
compound="CC1CC(C(=O)OC2OC(COC3OC(CO)C(OC4OC(C)C(O)C(O)C4O)C(O)C3O)C(O)C(O)C2O)C2CCC3(C)C(=CCC4(C)C3CCC3C(C)(CO)C(O)C(O)CC34C)C2C1C (stereo not given)" result="30.1 µM (inactive)"

What value of GI50 has been reported for the following compound? Nc1ccn(C2CC(O)C(COP(=O)(S)OC3CC(n4ccc(N)nc4=O)OC3CO)O2)c(=O)n1 (stereo not given)
> 100 µM (inactive)

----------
system: NCI-H522; experiment: NCI tumour cell line growth inhibition, 48 h
Active and inactive are the calls of the source. Cut-off read from the data, not from the text of the source: active = GI50 up to about 1.1 µM and inactive = higher.
GI50: recorded values

molecule=O=S1(=O)N=C(SCc2c[nH]c3ccccc23)N(c2ccccc2)c2ccncc21 result="37.5 µM (inactive)"
molecule=CC(=O)NNc1nc(C)c(C(/C=C/c2ccc3c(c2)OCO3)=N/Nc2ccccc2)s1 result="> 100 µM (inactive)"
molecule=O=C(NN=C1NCCCCN1)Nc1ccc(Cl)cc1 result="> 100 µM (inactive)"
molecule=CCCCCCOc1ccc(C(=O)N(C)O)cc1 result="9.86 µM (inactive)"
molecule=Cc1cn([C@H]2[C@@H](CO)C[C@H]2O)c(=O)[nH]c1=O result="> 100 µM (inactive)"
molecule=COc1ccc(CCN2C(=O)C=CC2=O)cc1OC result="1.52 µM (inactive)"

So what's the measured GI50 for this one? Nc1ccn(C2CC(O)C(COP(=O)(S)OC3CC(n4ccc(N)nc4=O)OC3CO)O2)c(=O)n1 (stereo not given)
> 100 µM (inactive)

Bench note: what GI50 did O=C(OCc1ccccc1)N(CCCCN(CCCNC(=O)C(F)(F)F)C(=O)OCc1ccccc1)CCCNC(=O)C(F)(F)F show?
2.94 µM (inactive)

Give its GI50 value. Item: O=[N+]([O-])c1cc(C2ON=C(c3ccccc3)N2C23CC4CC(CC(C4)C2)C3)ccc1Cl (stereo not given)
> 100 µM (inactive)

Value lookup for GI50; key = Cn1nc2ccc3nccc(N(CCO)CCO)c3c2n1
> 100 µM (inactive)
